tested on: Mycobacterium avium; experiment: Antimycobacterial activity against Mycobacterium avium CNCTC My 330/88 incubated for 14 days by micromethod; format: functional; conditions: Mycobacterium avium, CNCTC My 330/88, 336 h
As shown below, each of these molecules has a reported MIC99 value.
// units = µM; emit number, no label

Here is how some molecules turned out for MIC99.
chemical string	measured quantity	quantitative readout
CO[C@H]1/C=C/O[C@@]2(C)Oc3c(C)c(O)c4c(O)c(c(/C=N/N5CCN(C)CC5)c(O)c4c3C2=O)NC(=O)/C(C)=C\C=C\[C@H](C)[C@H](O)[C@@H](C)[C@@H](O)[C@@H](C)[C@H](OC(C)=O)[C@@H]1C	MIC99	32
O=[N+]([O-])c1cc(-c2nnc(SCCCN3CCCCC3)o2)cc([N+](=O)[O-])c1	MIC99	62.5
O=[N+]([O-])c1cc(-c2nnn(CCCN3CCOCC3)n2)cc([N+](=O)[O-])c1	MIC99	500

Please find the next molecule below.
Q. Need MIC99, item "CN1CCN(CCCc2nnc(SCc3cc([N+](=O)[O-])cc([N+](=O)[O-])c3)o2)CC1"
A. 1000

====

system: Mycobacterium avium; assay: Antimycobacterial activity against Mycobacterium avium CNCTC My 330/88 incubated for 14 days by micromethod; format: functional; details: Mycobacterium avium, CNCTC My 330/88, 336 h
measured quantity: MIC99 (µM)
// units = µM; emit number, no label

Here is how some compounds turned out for MIC99.
chemical string	MIC99, µM
CN1CCN(CCCSc2nnc(-c3cc([N+](=O)[O-])cc([N+](=O)[O-])c3)o2)CC1	125
O=[N+]([O-])c1cc(CSc2nnc(CCCCCN3CCOCC3)o2)cc([N+](=O)[O-])c1	125
O=[N+]([O-])c1cc(-c2nnn(CCCN3CCN(Cc4ccccc4)CC3)n2)cc([N+](=O)[O-])c1	8

Q. Give MIC99 (Mycobacterium avium) of the following compound: "O=[N+]([O-])c1cc(-c2nnc(SCCCN3CCN(Cc4ccccc4)CC3)o2)cc([N+](=O)[O-])c1"
A. 2

Q. Give MIC99 (Mycobacterium avium) of the following compound: "O=[N+]([O-])c1cc(CSc2nnc(CCCN3CCOCC3)o2)cc([N+](=O)[O-])c1"
A. 500

Q. Give MIC99 (Mycobacterium avium) of the following compound: "CN1CCN(CCCCCc2nnc(SCc3cc([N+](=O)[O-])cc([N+](=O)[O-])c3)o2)CC1"
A. 250

Q. Give MIC99 (Mycobacterium avium) of the following compound: "Cl.Cl.O=[N+]([O-])c1cc(CSc2nnc(CCCCCN3CCN(Cc4ccccc4)CC3)o2)cc([N+](=O)[O-])c1"
A. 32

Q. Give MIC99 (Mycobacterium avium) of the following compound: "O=[N+]([O-])c1cc(CSc2nnc(CCCN3CCN(Cc4ccccc4)CC3)o2)cc([N+](=O)[O-])c1"
A. 32

Q. Give MIC99 (Mycobacterium avium) of the following compound: "O=[N+]([O-])c1cc(-c2nnn(CCCN3CCCCC3)n2)cc([N+](=O)[O-])c1"
A. 62.5

Q. Give MIC99 (Mycobacterium avium) of the following compound: "O=[N+]([O-])c1cc(-c2nnc(SCCCN3CCOCC3)o2)cc([N+](=O)[O-])c1"
A. 125

Q. Give MIC99 (Mycobacterium avium) of the following compound: "CN1CCN(CCCn2nnc(-c3cc([N+](=O)[O-])cc([N+](=O)[O-])c3)n2)CC1"
A. 250

Q. Give MIC99 (Mycobacterium avium) of the following compound: "O=[N+]([O-])c1cc(CSc2nnc(CCCN3CCCCC3)o2)cc([N+](=O)[O-])c1"
A. 250

Q. Give MIC99 (Mycobacterium avium) of the following compound: "O=[N+]([O-])c1cc(CSc2nnc(CCCCCN3CCCCC3)o2)cc([N+](=O)[O-])c1"
A. 62.5

====

assay: Cytotoxicity against human HepG2 cells assessed as cell viability at 30 uM incubated for 48 hrs by CellTiter 96 aqueous one solution cell proliferation assay; format: cell-based; details: read-out: Activity
measured quantity: viability at 48 h, 30 µM
Answer with the value and then the unit.

Q. Need viability at 48 h, 30 µM, item "Cl.Cl.O=[N+]([O-])c1cc(CSc2nnc(CCCCCN3CCN(Cc4ccccc4)CC3)o2)cc([N+](=O)[O-])c1"
A. 112%
